Origin of the recorded values: the supplement of paper PMC11061612

# Tested on: HARA (Squamous Cell Lung Carcinoma);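 note: after 72 h of two-drug dosing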
# TEST NAME: Bliss excess, mean over the matrix (fraction); higher = more synergy
OBSERVABLE: Bliss excess

Solved cases below.
MOLECULE	MEAS VALUE
Cc1c2c(nn1C)CSCc1cc(n(C)n1)CSc1cc(c3ccccc3c1)OCCCc1c(C(=O)O)n(C)c3c-2c(Cl)ccc13 [AZD5991] + C=CCn1c(=O)c2cnc(Nc3ccc(N4CCN(C)CC4)cc3)nc2n1-c1cccc(C(C)(C)O)n1 [AZD1775] (first compound max 1 µM, partner max 1 µM)	0.0014
CN(CCO)CC[C@H](CSc1ccccc1)Nc1ccc(S(=O)(=O)NC(=O)c2ccc(N3CCC([C@@H](O)c4ccccc4-c4ccc(Cl)cc4)CC3)cc2)cc1S(=O)(=O)C(F)(F)F [AZD4320] + C=CCn1c(=O)c2cnc(Nc3ccc(N4CCN(C)CC4)cc3)nc2n1-c1cccc(C(C)(C)O)n1 [AZD1775] (first compound max 1 µM, partner max 1 µM)	-0.0129
Cc1cc2ncnn2cc1Nc1ncc2c(n1)n(C1CCOCC1)c(=O)n2C [AZD7648] + COc1cc([C@@H]2c3cc4c(cc3[C@@H](O[C@@H]3O[C@@H]5CO[C@@H](C)O[C@H]5[C@H](O)[C@H]3O)[C@H]3COC(=O)[C@H]23)OCO4)cc(OC)c1O [Etoposide] (first compound max 10 µM, 7x7, partner max 10 µM)	0.105
CC1(C)CCC(CN2CCN(c3ccc(C(=O)NS(=O)(=O)c4ccc(NCC5CCOCC5)c([N+](=O)[O-])c4)c(Oc4cnc5[nH]ccc5c4)c3)CC2)=C(c2ccc(Cl)cc2)C1 [Venetoclax] + C1CN(CCC1(C(=O)N[C@@H](CCO)C2=CC=C(C=C2)Cl)N)C3=NC=NC4=C3C=CN4 [Capivasertib] (first compound max 1 µM, 7x7, partner max 3 µM)	-0.009
Cc1c2c(nn1C)CSCc1cc(n(C)n1)CSc1cc(c3ccccc3c1)OCCCc1c(C(=O)O)n(C)c3c-2c(Cl)ccc13 [AZD5991] + CCN(CCO)CCCOc1ccc2c(Nc3cc(CC(=O)Nc4cccc(F)c4)[nH]n3)ncnc2c1 [AZD2811] (first compound max 1 µM, 7x7, partner max 1 µM)	0.0761

The reported value for COc1cccc(OCCCN)c1-c1cc(Nc2cnc(C#N)cn2)n[nH]1 [Prexasertib] + C[C@@H]1COCCN1C2=NC(=NC(=C2)C3(CC3)[S@](=N)(=O)C)C4=C5C=CNC5=NC=C4 [AZD6738] (first compound max 1 µM, 7x7, partner max 10 µM) in terms of Bliss excess is -0.0117

Note to self: Bliss excess recorded for CC1(C)CCC(CN2CCN(c3ccc(C(=O)NS(=O)(=O)c4ccc(NCC5CCOCC5)c([N+](=O)[O-])c4)c(Oc4cnc5[nH]ccc5c4)c3)CC2)=C(c2ccc(Cl)cc2)C1 [Venetoclax] + C[C@@H](Nc1cc(F)cc(F)c1)c1cc(C(=O)N(C)C)cc2c(=O)cc(N3CCOCC3)oc12 [AZD8186] (first compound max 1 µM, 7x7, partner max 3 µM) was 0.0144

Lab note: measured Bliss excess of CC(=O)c1c(C)c2cnc(Nc3ccc(N4CCNCC4)cn3)nc2n(C2CCCC2)c1=O [Palbociclib] + CC1(C)CCC(CN2CCN(c3ccc(C(=O)NS(=O)(=O)c4ccc(NCC5CCOCC5)c([N+](=O)[O-])c4)c(Oc4cnc5[nH]ccc5c4)c3)CC2)=C(c2ccc(Cl)cc2)C1 [Venetoclax] (first compound max 10 µM, 7x7, partner max 1 µM) was 0.0119

get_value(item= Cc1c2c(nn1C)CSCc1cc(n(C)n1)CSc1cc(c3ccccc3c1)OCCCc1c(C(=O)O)n(C)c3c-2c(Cl)ccc13 [AZD5991] + Cc1cc2ncnn2cc1Nc1ncc2c(n1)n(C1CCOCC1)c(=O)n2C [AZD7648] (first compound max 1 µM, 7x7, partner max 10 µM) , readout=Bliss excess) returns 0.045
